- assay-info: yeast display, Sf9 membrane polyspecificity reagent, FACS + sequencing; frameworks hold sequencing errors
quantity: polyreactivity (PSR sort gate)

{"sequence-string": "QVQLVESGGGLVQAGGSLRLSCAPSGRIFHYNAMGWYRQAPGKERELVAAIDYGGSSTYYADSVKGRFTISRDNAKNTVYLEMNSLKPEDTAVYYCWGQATQVTVSS", "reported": "low polyreactivity"}
{"sequence-string": "QVQLVESGGGLVQAGGSLRLSCAASGSTFIDYDMGWYRQAPGKERELVAAITSSGSTYYADSVKGRFTISRDNAKNTVYLQMNSLKPEDTAVYYCNARVGPELHDYWGQGTQVTVSS", "reported": "low polyreactivity"}
{"sequence-string": "QVQLVESGGGLVQAGGSIRLSCAASGSIFVDNARGWYRPAPGKERELVAAIRSRDTSTYYADSVKGRFTISRDNAKHTVYLQMNSLKPEDTAVYYCAARTSKRVSQYNYWGQGTQVTVSS", "reported": "high polyreactivity"}
{"sequence-string": "QVQLVESGGGLVQAGGSLRLSCAATGRTFSSYAMGWYRQAPGKEREFLARISSSRGRTSYADSVKGRFTISRDNAKNTVYVQMNSLKPEDTAVYYCAARPPYRVGIVPLGRREYYWGRGTQVTVSS", "reported": "high polyreactivity"}
{"sequence-string": "QVQLVESRGGLDQAGGSLRLSCAASGSIFNAYVMGWYRQAPGKERELVAAISRSGGRTYYADSVKGRFTISRDNAKNTVYLQMNSLKPEDTAVYYCAASTIWHYDSWGQGTQVTVSS", "reported": "high polyreactivity"}

Dear colleague, please send me the reported polyreactivity (PSR sort gate) for QVQLLESGGGLVQAGGSLRLRCASSGSISDWNAMGWYRQAPGKERELVAAISRGGNTNYADSVKGRFTISRDNAKNTVYLQMNSLKPEDTAVYYCAAGHGSLRYNYWGQGTQVSVSS when you can. high polyreactivity
